Tested on: IGROV1 ovarian
Test: NCI tumour cell line growth inhibition, 48 h
Where a name gives a salt, the structure may show the parent alone. Where a SMILES comes first, the peptide text is derived from it. The star is where a group is joined. Tfa = O=C(C(F)(F)F)*
Items are presented alongside their recorded TGI.
quantity: TGI

| compound | systemUnderTest | val |
| --- | --- | --- |
| O=C(Nc1ccc(Cl)cc1Cl)C1C(=O)N(c2ccc(Cl)cc2Cl)C(=O)/C1=N\Nc1ccc([N+](=O)[O-])cc1[N+](=O)[O-] (configuration not stated) | IGROV1 ovarian | > 100 µM |
| FC(F)(F)Oc1cccc(-c2cnc3ccc(-c4ccncc4)nn23)c1 | IGROV1 ovarian | 5.46 µM |
| C=C1C(=O)O[C@H]2[C@H]1CC/C(CNC(=O)Cc1c[nH]c3ccccc13)=C\CC[C@@]1(C)O[C@@H]21 | IGROV1 ovarian | 9.06 µM |
| C/C(CN1C(=O)c2ccccc2C1=O)=N\NS(=O)(=O)c1ccc(C)cc1 | IGROV1 ovarian | > 100 µM |
| Cc1cn(Cc2ccccc2CCO)c(=S)[nH]c1=O | IGROV1 ovarian | > 100 µM |
| ClCCCN(CCCCl)c1ccc(C=Nc2cccc(Cl)c2)cc1 | IGROV1 ovarian | > 100 µM |
| CCOC(=O)c1ccc2[nH]c(-c3ccc(S(=O)(=O)F)cc3)cc(=O)c2c1 | IGROV1 ovarian | > 100 µM |
| NCCSc1nc2ccccc2s1 | IGROV1 ovarian | > 100 µM |
| C/C=C/[C@H]1O[C@@](O)([C@@H](C)[C@H](O)[C@H](C)[C@H]2OC(=O)/C(OC)=C/C(C)=C/[C@@H](C)[C@@H](O)[C@@H](CC)[C@@H](O)[C@H](C)C/C(C)=C/C=C/[C@@H]2OC)C[C@H](OC2CC(O)C(O)C(C)O2)[C@@H]1C (some centres not stated) | IGROV1 ovarian | 17 µM |
| CCOC(=O)CN1C(=O)c2c(c(C)n(-c3ccccc3)c2C)C1=O | IGROV1 ovarian | > 100 µM |
| C=CCOC(=O)N1[C@H]2C#C/C=C\C#C[C@]3(O)C(=O)C[C@H](C)[C@]24O[C@]43C2=CC(=O)C=CC21OC (some centres not stated) | IGROV1 ovarian | 67.3 µM |
| CCC(C)n1c(C)nc2c1C(=O)c1ccccc1C2=O (configuration not stated) | IGROV1 ovarian | > 100 µM |
| COC(=O)C1=C(c2ccc(OC)c(OC)c2)OC(c2ccc(OC)c(OC)c2)C1 (configuration not stated) | IGROV1 ovarian | > 100 µM |
| O=C(/C=C1\N=C(c2ccccc2)N(c2nc3ccc(Sc4ccccc4)cc3[nH]2)C1=O)/C=C/c1ccccc1 | IGROV1 ovarian | > 100 µM |
| CCOC(=O)C1(C(N)=O)C(=O)c2ccncc2C1=O (configuration not stated) | IGROV1 ovarian | > 100 µM |
| CC(=O)ON(C(C)=O)c1ccc(-c2nc3ccccc3s2)cc1 | IGROV1 ovarian | 36.9 µM |
| CC(C)(C)NNC(=O)/C(=C/c1ccc([N+](=O)[O-])cc1)NC(=O)c1ccccc1 | IGROV1 ovarian | > 100 µM |
| N#Cc1ccccc1NC(=O)/C(=N\N)C(C(=O)c1ccncc1)C1OC(=O)c2ccccc21 (configuration not stated) | IGROV1 ovarian | > 100 µM |
| Nc1cc2c3c(c1)Oc1cc(N)cc4c1C3c1c(cc(N)cc1O4)O2 | IGROV1 ovarian | > 44.9 µM |
| Clc1ncnc(Cl)c1Cl | IGROV1 ovarian | > 100 µM |
| COc1cccc2c1C(=O)C=CC2=O | IGROV1 ovarian | 27.2 µM |
| CS/C(=N\C(=S)N(C)C)N(c1ccccc1)c1nc(=[N+](C)C)ss1 | IGROV1 ovarian | > 100 µM |
| CCOc1ccccc1NC(=O)CC1C(=O)Nc2ccccc2S1=O (configuration not stated) | IGROV1 ovarian | > 100 µM |
| O=C(O)CC(NC(=O)C(F)(F)F)C(=O)NC(Cc1ccc(O)cc1)C(=O)O (stereo not drawn) (Tfa-Asp-Tyr-OH; configuration not given here) | IGROV1 ovarian | > 50 µM |
| Fc1ccc2[nH]cc(-c3nc(-c4c[nH]c5ncccc45)cs3)c2c1 | IGROV1 ovarian | > 100 µM |
| CN(C)C(Cc1cnc[nH]1)C(=O)N1CCCC1C(N)=O (configuration not stated) | IGROV1 ovarian | > 100 µM |
| NNC(=O)CSc1nc2ccc(I)cc2c(=O)n1Cc1ccccc1 | IGROV1 ovarian | 69.3 µM |
| CN(C)c1ccc2c(=O)c3ccccc3oc2n1 | IGROV1 ovarian | > 100 µM |
| COc1ccc2oc(=O)cc(C(c3ccc[nH]3)c3ccc[nH]3)c2c1 | IGROV1 ovarian | 17.6 µM |
| COc1ccc(C2CC(c3cc(OC)c(OC)c(OC)c3)=NO2)cc1OCCCCOc1cc2c(cc1OC)C(=O)N1CCC[C@H]1C=N2 (some centres not stated) | IGROV1 ovarian | 3.06 µM |
| NC(=O)NNCc1ccccc1 | IGROV1 ovarian | > 100 µM |
| CC1(C)N=C(N)N=C(N)N1c1cccc(CCCCc2cccc(S(=O)(=O)F)c2)c1 | IGROV1 ovarian | > 58.3 µM |
